Molecular target: PAR2 (HT-29 cells, SLIGKV activation) (Homo sapiens, UniProt P55085)
Construct: host or cells: HT-29 cells
Sequence (P55085 26-397): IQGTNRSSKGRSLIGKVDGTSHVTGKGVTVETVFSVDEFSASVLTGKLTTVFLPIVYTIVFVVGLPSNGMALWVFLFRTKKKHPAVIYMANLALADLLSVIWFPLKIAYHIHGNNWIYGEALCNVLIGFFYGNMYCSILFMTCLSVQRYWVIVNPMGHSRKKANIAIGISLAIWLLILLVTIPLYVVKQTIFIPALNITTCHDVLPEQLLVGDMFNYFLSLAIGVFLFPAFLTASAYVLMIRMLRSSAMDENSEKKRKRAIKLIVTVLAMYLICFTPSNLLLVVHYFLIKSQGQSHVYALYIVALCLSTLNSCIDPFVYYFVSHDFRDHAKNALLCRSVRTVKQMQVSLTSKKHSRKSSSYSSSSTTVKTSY
Assay: Ca FLIPR TETRA assay, ANTAGONIST mode, stimulation with 8 μM SLIGKV
Type: cell-based
Conditions: HT-29 cells, antagonist mode, stimulation with 8 μM SLIGKV
observed-property: IC50
Kindly format the answer as number then unit.

Query :: IC50 lookup needed for CC(C)c1cc(-c2ccc(C#N)cc2)nn2cc(C(=O)N3CCN(C(=O)C(C)(C)O)CC3(C)C)nc12 , thanks.
Result :: 760 nM

Query :: Same again, this time with CC1(C)CN(C(=O)C2CC(O)(C(F)(F)F)C2)CCN1C(=O)c1cn2nc(-c3ccc(F)cc3)cc(C3CCOCC3)c2n1 (stereo not drawn)
Result :: 42.5 nM

Query :: Same again, this time with CC(C)c1cc(-c2ccccc2F)nn2cc(C(=O)N3CCNC(=O)C3(C)C)nc12
Result :: 155 nM

Query :: Same again, this time with CC(C)(C)c1cc(-c2ccc(Cl)c(F)c2)nn2cc(C(=O)N3CCN(C(=O)[C@H]4C[C@@](C)(O)C4)CC3(C)C)nc12
Result :: 0.2 nM

Query :: Same again, this time with Cc1cc(-c2cc(C(C)C)c3nc(C(=O)N4CCN(C(=O)c5nc[nH]n5)CC4(C)C)cn3n2)ccc1F
Result :: 12.6 nM

Query :: Same again, this time with Cc1cc(-c2cc(C(C)C)c3nc(C(=O)N4CCNC(=O)C4(C)C)cn3n2)ccc1F
Result :: 7.5 nM

Query :: Same again, this time with CC(C)(C)c1cc(-c2ccc(Cl)c(F)c2)nn2cc(C(=O)N3CCNC(=O)C3(C)C)nc12
Result :: 1.1 nM

Query :: Same again, this time with Cc1nc(C(=O)N2CCN(C(=O)c3cn4nc(-c5ccc(C(F)(F)F)cc5)cc(C(C)C)c4n3)C(C)(C)C2)c[nH]1
Result :: 4.5 nM

Query :: Same again, this time with Cc1nnc(C(=O)N2CCN(C(=O)c3cn4nc(-c5ccc(C)c(F)c5)cc(C(C)(C)C)c4n3)C(C)(C)C2)o1
Result :: 1.9 nM

Query :: Same again, this time with Cc1ccc(-c2cc(C(C)C)c3nc(C(=O)N4CCN(C(=O)c5ccccn5)CC4(C)C)cn3n2)cc1F
Result :: 2.3 nM

Query :: Same again, this time with CC(C)c1cc(-c2ccc(F)cc2)nn2cc(C(=O)N3CCN(C(=O)CC(C)(C)O)CC3(C)C)nc12
Result :: 33 nM

Query :: Same again, this time with Cc1n[nH]c(C(=O)N2CCN(C(=O)c3cn4nc(-c5ccc(F)c(C)c5)cc(C(C)C)c4n3)C(C)(C)C2)n1
Result :: 5.6 nM

Query :: Same again, this time with COC(=O)C1CC(C(=O)N2CCN(C(=O)c3cn4nc(-c5ccc(F)cc5)cc(C(C)(C)C)c4n3)C(C)(C)C2)C1 (stereo not drawn) [Compound I-537]
Result :: 0.8 nM

Query :: Same again, this time with CC1(C)CN(C(=O)c2ncc[nH]2)CCN1C(=O)c1cn2nc(-c3ccc(F)cc3)cc(C(F)(F)F)c2n1
Result :: 47.5 nM

Query :: Same again, this time with COC(=O)[C@H]1CC[C@@H](C(=O)N2CCN(C(=O)c3cn4nc(C(C)C)cc(C(C)C)c4n3)C(C)(C)C2)CC1
Result :: 773 nM

Query :: Same again, this time with CC(C)c1cc(-c2ccc(F)c(Cl)c2)nn2cc(C(=O)N3CCN(C(=O)[C@H]4C[C@@H](C(=O)O)C4)CC3(C)C)nc12
Result :: 21 nM

Query :: Same again, this time with CC(C)(C)c1cc(-c2ccc(C(F)(F)F)cc2)nn2cc(C(=O)N3CCNC(=O)C3(C)C)nc12
Result :: 2.2 nM

Query :: Same again, this time with CC(C)(C)c1cc(-c2ccc(F)cc2)nn2cc(C(=O)N3CCN(C(=O)c4nnn[nH]4)CC3(C)C)nc12
Result :: 32 nM

Query :: Same again, this time with Cc1ccc(-c2cc(C(C)C)c3nc(C(=O)N4CCN(C(=O)C5CC(C)(O)C5)CC4(C)C)cn3n2)cc1 (stereo not drawn)
Result :: 3.2 nM

Query :: Same again, this time with CC(C)(C)c1cc(-c2ccc(Cl)cc2)nn2cc(C(=O)N3CCN(C(=O)C4CC(C(=O)O)C4)CC3(C)C)nc12 (stereo not drawn)
Result :: 1 nM

Query :: Same again, this time with Cc1n[nH]c(C(=O)N2CCN(C(=O)c3cn4nc(-c5ccc(F)cc5)cc(C(C)(C)C)c4n3)CC2)n1
Result :: 116 nM

Query :: Same again, this time with C[C@@H]1C[C@H](c2cc(-c3ccc(F)cc3)nn3cc(C(=O)N4CCN(C(=O)c5ccn[nH]5)CC4(C)C)nc23)C[C@H](C)O1
Result :: 21.2 nM

Query :: Same again, this time with CC(C)(C)c1cc(-c2ccc(F)cc2)nn2cc(C(=O)N3CCNC(=O)C34CCCC4)nc12
Result :: 2.2 nM

Query :: Same again, this time with CC(C)c1cc(-c2ccc(C(F)F)cc2)nn2cc(C(=O)N3CCN(C(=O)c4cn[nH]c4)CC3(C)C)nc12
Result :: 7.5 nM

Query :: Same again, this time with Cc1cc(C(=O)N2CCN(C(=O)c3cn4nc(-c5ccc(F)cc5)cc(C(C)C)c4n3)C(C)(C)C2)[nH]n1
Result :: 2 nM

Query :: Same again, this time with Cc1nnc(C(=O)N2CCN(C(=O)c3cn4nc(-c5ccc(F)c(C)c5)cc(C(C)(C)C)c4n3)C(C)(C)C2)o1
Result :: 2.2 nM

Query :: Same again, this time with Cc1nnc(C(=O)N2CCN(C(=O)c3cn4nc(C5CCC(F)(F)CC5)cc(C(C)(C)C)c4n3)C(C)(C)C2)[nH]1
Result :: 6.9 nM
